test system: Staphylococcus aureus 285; experiment: Minimum inhibition concentration (MIC), Table 1; format: cell-based; conditions: Germ: Staphylococcus aureus 285
Assay Metric: Minimum inhibition concentration (MIC)

| Compound | Result Value |
| --- | --- |
| CCc1nnc(SCC2=C(C(=O)O)N3C(=O)C(NC(=O)Cc4ccc(C5=NCCCN5)cc4)C3SC2)[nH]1 (stereo not drawn) [Example 95] | 1.6 to 2.5 µg/mL |
| O=C(Cc1ccc(C2=NCCCN2)cc1)NC1C(=O)N2C(C(=O)O)=C(CSc3nnc(-c4ccccc4)o3)CSC12 (stereo not drawn) [Example 103] | 0.156 to 0.391 µg/mL |
| Cc1csc(SCC2=C(C(=O)O)N3C(=O)C(NC(=O)COc4ccc(C(=N)N)cc4)C3SC2)n1 (stereo not drawn) [Example 64] | 0.5 to 1.25 µg/mL |
| O=C(Cc1ccc(C2=NCCCN2)cc1)NC1C(=O)N2C(C(=O)O)=C(CSc3nnc[nH]3)CSC12 (stereo not drawn) [Example 94] | 1.6 to 2.5 µg/mL |
| O=C(Cc1ccc(C2=NCCCN2)cc1)NC1C(=O)N2C(C(=O)O)=C(CSc3nnc(-c4ccccc4)o3)CSC12 (stereo not drawn) [Example 83] | 0.5 to 1.25 µg/mL |

// moving on: another record for Minimum inhibition concentration (MIC)
Ask: Suppose we examine the compound N=C(N)c1ccc(OCC(=O)NC2C(=O)N3C(C(=O)O)=C(CSc4nnc(-c5ccccc5)o4)CSC23)cc1 (stereo not drawn) [Example 28] ; what Minimum inhibition concentration (MIC) value has been reported?
Reply: 0.156 to 0.391 µg/mL
